Data origin: patent US7858635B2

- tgt: M1 muscarinic receptor (Homo sapiens, UniProt P11229)
- Construct: expressed in transfected cells; host or cells: CHO cells (M1-CHO, under zeocin and G418 selection)
- Sequence (P11229 whole entry): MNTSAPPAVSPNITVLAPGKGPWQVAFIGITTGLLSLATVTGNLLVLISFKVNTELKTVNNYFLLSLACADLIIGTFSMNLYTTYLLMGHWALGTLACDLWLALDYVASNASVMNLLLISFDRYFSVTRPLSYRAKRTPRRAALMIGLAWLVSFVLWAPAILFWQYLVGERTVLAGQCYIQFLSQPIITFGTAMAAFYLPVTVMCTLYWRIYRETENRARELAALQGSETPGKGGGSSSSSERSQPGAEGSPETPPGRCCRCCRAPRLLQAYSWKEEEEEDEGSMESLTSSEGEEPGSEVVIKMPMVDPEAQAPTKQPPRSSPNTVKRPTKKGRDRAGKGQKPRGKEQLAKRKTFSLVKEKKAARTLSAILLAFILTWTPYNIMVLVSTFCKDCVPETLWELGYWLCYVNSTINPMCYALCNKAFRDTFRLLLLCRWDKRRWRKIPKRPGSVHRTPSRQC
- test_name: Functional mobilization of intracellular calcium (FLIPR, Fluo-3), M1-CHO cells
- Assay type: cell-based
- protocol_conditions: compound nos. 1-454; 100% efficacy is the maximum response obtained with the Carbachol control; read-out: M1 Efficacy
Listed below: Emax values for each entry.

Completed entries (count: 3):
# input GET /values?readout=Emax&item= CCOC(=O)N1CCC(N2CCC3(CC2)CN(C(C)=O)c2ccc(-c4ccsc4)cc23)CC1 [compound 165]
# output 65 to 85%

# input // lookup Emax for CC(=O)N1CC2(CCN(CC3CCCOC3)CC2)c2cc(F)ccc21 (centres unmarked) [compound 75]
# output < 65%

# input Fill blank: measured Emax of the compound CC(C)OC(=O)N1C2CCC1CC(N1CCC3(CC1)CN(S(C)(=O)=O)c1ccc(F)cc13)C2 (centres unmarked) [compound 170] is ____.
# output 65 to 85%

More entries:
# input So what's the measured Emax for this one? CCCS(=O)(=O)N1CC2(CCN(C3CC4CCC(C3)N4C(=O)OCC)CC2)c2cc(F)ccc21 (centres unmarked) [compound 349]
# output > 85%

# input Looking for the measured Emax of CCCC1CCC(N2CCC3(CC2)CN(C(C)=O)c2ccc(F)cc23)CC1 (centres unmarked) [compound 131] , can you help?
# output 65 to 85%

# input Name the recorded Emax for CCOC(=O)N1CCC(CN2CCC3(CC2)CN(C(C)=O)c2ccc(Cl)cc23)CC1 [compound 256] .
# output < 65%

# input Which Emax is reported for this compound? CCOC(=O)N1CCC(N2CCC3(CC2)CN(C(C)=O)c2ccc(CC)cc23)CC1 [compound 137]
# output > 85%

# input Give the measured Emax of C1=C[C@H]2C[C@H]1C[C@@H]2CN1CCC2(CCc3ccccc32)CC1 [compound 263] .
# output < 65%

# input Consider the compound shown here: CC(=O)N[C@H]1CC2(CCN(C3CCC(C)CC3)CC2)c2ccccc21 (some centres unmarked) [compound 280] What is its recorded Emax?
# output 65 to 85%

# input Which measured Emax value corresponds to CC(=O)N[C@H]1CC2(CCN(C3C4CC5CC(C4)CC3C5)CC2)c2ccccc21 (some centres unmarked) [compound 4] ?
# output < 65%

# input Fill in: Emax of CCOC(=O)N1CCC(N2CCC3(CC2)CN(C(=O)c2ccccc2C)c2ccc(F)cc23)CC1 [compound 53] is ___
# output < 65%

# input Entry O=C1Nc2ccccc2C12CCN(C1CC3CCC1C3)CC2 (centres unmarked) [compound 259] has what Emax?
# output 65 to 85%

# input State the recorded Emax for this entry: CCOC(=O)N1CCC(N2CCC3(CC2)CN(C(=O)c2ccc(OC)cc2)c2ccc(F)cc23)CC1 [compound 41]
# output > 85%

# input Returns the measured Emax for the input compound. Input: Cc1ccc2c(c1)C1(CCN(C3C4CCCC3CCC4)CC1)CN2 (centres unmarked) [compound 72]
# output 65 to 85%

# input If you can, please state the reported Emax value of COCCOC(=O)N1C2CCC1CC(N1CCC3(CC1)CN(C(=O)O[C@@H]1CCOC1)c1ccc(F)cc13)C2 (some centres unmarked) [compound 216] .
# output > 85%

# input What value of Emax has been recorded for this entry: CCOC(=O)N1CCC(N2CCC3(CC2)CN(C(C)=O)c2ccc(Cl)cc23)CC1 [compound 141]
# output > 85%

# input Tell me the measured Emax of CC(=O)N(C)[C@H]1CC2(CCN(C[C@H]3C[C@H]4CC[C@H]3C4)CC2)c2ccccc21 [compound 339] , please.
# output < 65%

# input Name the reported Emax value associated with the compound CCOC(=O)N1CCC(N2CCC3(CC2)CN(C(C)=O)c2ccc(-c4ccc(C)cc4)cc23)CC1 [compound 58]
# output 65 to 85%
